Would you kindly list % long compare to B for each of these molecules?
Tested on: Mfn2 null MEFs
Assay: Mitochondrial elongation (aspect ratio) fusogenicity assay
Type: cell-based, mouse
Parameters: dose or concentration left out as unconfirmed
Details: mitochondrial elongation relative to Cpd B (B01 = 100); Mfn2 null MEFs, compound overnight as printed (FIG. 48)
Use % as the unit, but write only the number.

**Query** // query % long compare to B value for entry COCCNC(=O)c1c(NC(=O)CSc2nnc(C3CC3)n2C)sc2c1CCCC2
**Result** 68

**Query** // query % long compare to B value for entry O=C1CC(SCCc2nc3ccccc3[nH]2)C(=O)N1c1cccc(F)c1 (stereo not drawn)
**Result** 73

**Query** // query % long compare to B value for entry CC(Sc1nnc(N2CCOCC2)n1Cc1ccccc1)C(=O)Nc1ccc2c(c1)OCO2 (stereo not drawn)
**Result** −14

----------
Assay: Plasma protein binding, mouse
Format: in vitro ADME
Settings: read-out: plasma protein bound in the mouse (converted)
PROPERTY: fraction unbound

**Query** // query fraction unbound value for entry CCn1c(CCCNC(=O)NC2CCOCC2)nnc1C1CC1 [Mitolityn-4]
**Result** 0.888

----------
Tested on: Mfn2 null MEFs
Experiment: Mitochondrial elongation (aspect ratio) fusogenicity assay
Format: cell-based, mouse
Design: dose or concentration left out as unconfirmed
Conditions: mitochondrial elongation relative to Cpd B (B01 = 100); Mfn2 null MEFs, compound overnight as printed (FIG. 48)
Would you kindly list % long compare to B for each of these molecules?
Use % as the unit, but write only the number.

**Query** // query % long compare to B value for entry NC(=O)c1c(NC(=O)CSc2nnc(Cc3cccs3)n2-c2ccccc2)sc2c1CCC2
**Result** 35

**Query** // query % long compare to B value for entry Cc1ccc2c(c1)SC(C(=O)NCc1ccc(N3CCCN(C)CC3)nc1)C2 (stereo not shown)
**Result** 14

**Query** // query % long compare to B value for entry CCC(C)NC(=O)c1ccccc1NC(=O)C(C)Sc1ccc(C)cc1 (stereo not shown)
**Result** 1

**Query** // query % long compare to B value for entry CC(Sc1nnc(N2CCOCC2)n1Cc1ccccc1)C(=O)Nc1ccc2[nH]c(=O)[nH]c2c1 (stereo not shown)
**Result** 39

**Query** // query % long compare to B value for entry CCn1c(CCc2ccccc2)nnc1SCC(=O)Nc1sc2c(c1C(N)=O)CCC(C)C2 (stereo not shown)
**Result** 3

**Query** // query % long compare to B value for entry COc1ccc(SC(C)C(=O)Nc2cc[nH]n2)cc1 (stereo not shown)
**Result** 10

**Query** // query % long compare to B value for entry Cc1nnc(SCC(=O)Nc2sc3c(c2C(N)=O)CCC3)n1C
**Result** 2

**Query** // query % long compare to B value for entry CC(Sc1nnc(Cc2cccs2)n1C)C(=O)Nc1sc2c(c1C(N)=O)CCC2 (stereo not shown)
**Result** 41

**Query** // query % long compare to B value for entry CC(Sc1nnc(-c2c[nH]c3ccccc23)n1C1CC1)C(=O)Nc1sc2c(c1C(N)=O)CCC2 (stereo not shown)
**Result** 2

**Query** // query % long compare to B value for entry NC(=O)c1c(NC(=O)CSc2ccccc2)sc2c1CCC2
**Result** 12

**Query** // query % long compare to B value for entry O=C(CSCC(=O)N1CCCc2ccccc21)Nc1ccccc1
**Result** −17

**Query** // query % long compare to B value for entry CC1CCc2c(sc(NC(=O)CSc3nncn3-c3ccccc3)c2C(N)=O)C1 (stereo not shown)
**Result** −9

**Query** // query % long compare to B value for entry CC(Sc1nncn1-c1ccccc1)C(=O)Nc1sc2c(c1C(N)=O)CCC2 (stereo not shown)
**Result** 14

**Query** // query % long compare to B value for entry Cn1c(SCC(=O)Nc2sc3c(c2C(=O)NCc2ccccc2)CCCC3)nnc1C1CC1
**Result** −31

**Query** // query % long compare to B value for entry Cc1ccc(-n2c(SC(C)C(=O)Nc3ccnn3C(C)C)nnc2N2CCOCC2)cc1 (stereo not shown)
**Result** 16

**Query** // query % long compare to B value for entry CCn1c(SCC(=O)Nc2sc3c(c2C(N)=O)CCCC3)nnc1C1CC1
**Result** −7

**Query** // query % long compare to B value for entry COc1ccc(NC(=O)c2c(NC(=O)CSc3nnc(C4CC4)n3C)sc3c2CCCC3)cc1
**Result** 17

**Query** // query % long compare to B value for entry COC(=O)c1c(NC(=O)CSc2nnc(C)n2-c2ccccc2)sc2c1CCC2
**Result** 39

**Query** // query % long compare to B value for entry COc1ccc(OCc2nnc(SC(C)C(=O)Nc3sc4c(c3C(N)=O)CCC4)n2C)cc1 (stereo not shown)
**Result** −1
